AC50 overview
target: POLγA:A467T (Homo sapiens, UniProt P54098, A467T); test: DNA polymerization assay, POLγA:A467T mutant; assay type: biochemical; conditions: stimulation of polymerase activity, primed M13mp18 ssDNA, 37° C. 2 hours; read-out: A467T AC50

- compound: "Cc1cnc(-c2cccc(S(=O)(=O)Nc3cc(C)c(Cl)cc3C)c2)s1 [Example 78]"
  AC50: "> 100 µM"
- compound: "Cc1cc(S(=O)(=O)Nc2cccc(C(=O)N(C)C(C)CO)c2)c(C)cc1Cl (single isomer, unassigned) [Example 15]"
  AC50: "> 100 µM"
- compound: "Cc1cc(S(=O)(=O)Nc2ccc(-c3ncc(CN(C)C)s3)cc2)c(C)cc1Cl [Example 86]"
  AC50: "> 100 µM"
- compound: "Cc1cc(S(=O)(=O)Nc2cccc(C(=O)N3CCc4ncnc(C)c4C3)c2)c(C)cc1Cl [Example 114]"
  AC50: "> 100 µM"

Let us move to another entry and its AC50.
Request: Provide value of AC50 for this record tested with POLγA:A467T (Homo sapiens, UniProt P54098, A467T): Cc1ccc(C)c(S(=O)(=O)Nc2cccc(C(=O)N(C)Cc3ccccc3)c2)c1 [Example 26]
Result: > 100 µM

* * *

Molecular target: POLγ W748S + E1143G (Homo sapiens, UniProt P54098, E1143G/W748S)
Sequence (P54098 1-1239 W748S/E1143G): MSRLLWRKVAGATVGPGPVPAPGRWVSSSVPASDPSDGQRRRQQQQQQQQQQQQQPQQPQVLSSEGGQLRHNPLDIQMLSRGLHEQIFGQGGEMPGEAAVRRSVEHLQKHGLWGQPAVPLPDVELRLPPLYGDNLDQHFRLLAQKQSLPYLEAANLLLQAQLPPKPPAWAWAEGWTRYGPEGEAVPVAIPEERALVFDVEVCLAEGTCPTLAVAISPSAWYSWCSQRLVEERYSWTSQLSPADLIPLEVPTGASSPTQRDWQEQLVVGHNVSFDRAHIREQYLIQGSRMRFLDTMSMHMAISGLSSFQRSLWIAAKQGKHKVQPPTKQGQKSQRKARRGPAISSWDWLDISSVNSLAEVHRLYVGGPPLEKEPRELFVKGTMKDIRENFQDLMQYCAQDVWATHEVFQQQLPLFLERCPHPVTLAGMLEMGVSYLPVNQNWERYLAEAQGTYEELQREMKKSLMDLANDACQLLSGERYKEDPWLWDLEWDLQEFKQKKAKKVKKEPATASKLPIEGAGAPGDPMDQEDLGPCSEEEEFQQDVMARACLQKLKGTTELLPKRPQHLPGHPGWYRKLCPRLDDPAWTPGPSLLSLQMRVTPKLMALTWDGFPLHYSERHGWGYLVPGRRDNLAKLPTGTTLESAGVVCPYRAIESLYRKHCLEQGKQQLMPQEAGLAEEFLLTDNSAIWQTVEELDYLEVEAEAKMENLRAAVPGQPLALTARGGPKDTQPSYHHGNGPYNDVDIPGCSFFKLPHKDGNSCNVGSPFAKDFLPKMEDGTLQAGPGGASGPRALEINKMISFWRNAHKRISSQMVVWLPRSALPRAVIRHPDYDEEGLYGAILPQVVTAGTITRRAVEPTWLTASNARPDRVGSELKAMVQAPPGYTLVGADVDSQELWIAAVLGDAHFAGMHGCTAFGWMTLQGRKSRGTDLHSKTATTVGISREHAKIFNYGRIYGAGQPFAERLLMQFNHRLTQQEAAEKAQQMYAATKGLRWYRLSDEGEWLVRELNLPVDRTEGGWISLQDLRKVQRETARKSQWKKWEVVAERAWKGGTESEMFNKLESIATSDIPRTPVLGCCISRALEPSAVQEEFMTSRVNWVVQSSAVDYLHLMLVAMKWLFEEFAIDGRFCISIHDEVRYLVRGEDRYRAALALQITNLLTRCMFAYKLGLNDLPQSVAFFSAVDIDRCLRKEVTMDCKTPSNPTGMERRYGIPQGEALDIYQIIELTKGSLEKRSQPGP
Sequence (Q9UHN1 1-485 partner): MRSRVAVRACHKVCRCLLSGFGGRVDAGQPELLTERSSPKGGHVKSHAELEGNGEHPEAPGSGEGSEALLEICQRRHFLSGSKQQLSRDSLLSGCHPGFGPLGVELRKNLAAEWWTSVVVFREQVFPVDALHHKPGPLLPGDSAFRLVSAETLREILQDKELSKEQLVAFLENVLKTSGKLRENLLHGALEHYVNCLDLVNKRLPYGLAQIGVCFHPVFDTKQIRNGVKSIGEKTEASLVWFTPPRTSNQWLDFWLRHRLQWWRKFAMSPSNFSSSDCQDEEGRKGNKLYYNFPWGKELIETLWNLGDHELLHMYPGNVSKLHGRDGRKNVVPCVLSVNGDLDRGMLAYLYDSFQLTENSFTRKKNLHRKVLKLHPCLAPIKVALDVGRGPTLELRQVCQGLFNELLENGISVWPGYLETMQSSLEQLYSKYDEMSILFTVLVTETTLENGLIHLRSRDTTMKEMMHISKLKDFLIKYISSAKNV
Assay: DNA polymerization assay, W748S + E1143G mutant
Assay type: biochemical
Conditions: stimulation of polymerase activity, primed M13mp18 ssDNA, 37° C. 2 hours
assayReadout: AC50 (µM)

These recorded examples may help you get a feel for the data.
- molecule: "Cc1cc(S(=O)(=O)Nc2csc(-n3cccn3)n2)c(C)cc1Cl [Example 178]"
  AC50 (µM): 1
- molecule: "Cc1cc(S(=O)(=O)Nc2cc(F)cc(C(=O)N3CCC[C@H]3C)c2)c(C)cc1Cl [Example 13]"
  AC50 (µM): 4
- molecule: "Cc1cc(S(=O)(=O)Nc2csc(C(=O)N3CCC[C@H]3C)n2)c(C)cc1Cl [Example 174]"
  AC50 (µM): 0.7
- molecule: "Cc1cc(S(=O)(=O)Nc2cccc(C(=O)N3CCC[C@H]3C)c2)c(C)cc1Cl [Example 10]"
  AC50 (µM): 2
- molecule: "Cc1cc(-c2cccc(NS(=O)(=O)c3cc(C)c(Cl)cc3C)c2)n[nH]1 [Example 66]"
  AC50 (µM): 5

1. Cc1cc(S(=O)(=O)Nc2csc(-c3ccnn3C)n2)c(C)cc1Cl [Example 182]
2. Cc1cc(S(=O)(=O)Nc2cccc(-c3ncc(CN(C)C)s3)c2)c(C)cc1Cl [Example 87]
3. Cc1cc(S(=O)(=O)Nc2csc(C3CCOCC3)n2)c(C)cc1Cl [Example 167]
4. Cc1cc(S(=O)(=O)Nc2csc(-c3ccccn3)n2)c(C)cc1Cl [Example 173]
5. Cc1cc(S(=O)(=O)Nc2cccc(C(=O)NCc3ccccc3)c2)c(C)cc1Cl [Example 11]
Request: // sort entries: AC50, high to low Kindly provide the labels arranged according to the requested ordering.
Result: 5, 2, 3, 1, 4
(5: 19 µM, 2: 5 µM, 3: 2 µM, 1: 1 µM, 4: 0.4 µM)

A. Cc1csc(-c2cccc(NS(=O)(=O)c3cc(C)c(Cl)cc3C)c2)n1 [Example 20]
B. Cc1cc(S(=O)(=O)Nc2cccc(-c3ncc(CO)s3)c2)c(C)cc1Cl [Example 89]
Request: Pick one: A or B . Which has the bigger AC50 number? # reply format: chosen label
Result: A
